Tested on: HCT-15
method: NCI tumour cell line growth inhibition, 48 h
Non-standard residues stand in square brackets, D forms with d. Residues, ends and D or L forms follow the SMILES beside them. ξ: configuration not given here. *: point of attachment. NMeF = CN[C@@H](Cc1ccccc1)C(=O)O; NMeV = CN[C@H](C(=O)O)C(C)C; ξNMeV = CNC(C(=O)O)C(C)C; Boc = CC(C)(C)OC(=O)*; OBn = c1ccc(CO*)cc1
// reported GI50 per item

# example entries with known answers
CC(=O)N/C(=C\c1ccccc1/C=C(\NC(C)=O)c1nc2cc(C)c(C)cc2[nH]1)c1nc2cc(C)c(C)cc2[nH]1 = > 10 µM
Nc1nc2c(ncn2CC2CCC(CO)C2)c(=O)[nH]1 (stereo unspecified) = > 100 µM
CC1OC(OCC2OC(Oc3c(-c4ccc(O)cc4)oc4cc(O)cc(O)c4c3=O)C(OC3OC(C)C(O)C(O)C3O)C(O)C2O)C(O)C(O)C1O (stereo unspecified) = > 42.3 µM
CC(C)C(C(=O)N(C)[C@H](C(=O)N1CCC[C@H]1C(=O)N(C)[C@@H](Cc1ccccc1)C(=O)OCc1ccccc1)C(C)C)N(C)C(=O)[C@@H](NC(=O)OC(C)(C)C)C(C)C (stereo partly specified) (Boc-V[ξNMeV][NMeV]P[NMeF]-OBn) = 8.65 µM
COc1cc(S(=O)(=O)Nc2nc(-c3ccc(N4C(=O)/C(=C/c5ccccc5)N=C4c4ccccc4)cc3)cs2)ccc1Cl = > 100 µM

Alright, here's another molecule for you.
So what GI50 did CCN1C(C)=NC2C(=O)c3ccccc3C(=O)C21 (stereo unspecified) get with HCT-15?
57.4 µM

---

System: RPMI-8226
method: NCI tumour cell line growth inhibition, 48 h
The source made the active and inactive calls. No stated cut-off is given here; in the data, active = GI50 up to about 1.1 µM and inactive = higher.
Your answer must be one of the following: 1 = active, 0 = inactive

CCOC(=O)[C@@]1(C)CC(O)C(=O)N1C (some centres undefined) = 0
CCN(CC)c1c(C(=O)/C=C/c2ccc(F)cc2)c(-c2ccccc2)nn(C)c1=O = 0
COC(=O)c1cc2c(cc1O)[C@@H](NC(C)=O)CCc1cc(OC)c(OC)c(OC)c1-2 = 1
CCOC(=O)C1=C(C)N(c2ccc(Cl)cc2)C2(O)C=CC(O)=C3C(=O)c4ccccc4C(=O)C312 (centres undefined) = 0
CC(=O)NC1C(OCc2ccccc2)OC(CO)C(O)C1OC(C)C(=O)NC(C(=O)NC(CCC(=O)Nc1ccc2c(c1)CN1C(=O)c3ccccc3C1=N2)C(N)=O)C(C)C (centres undefined) = 0
CC(=O)/C(=C\n1c(=S)[nH]c2ccc([N+](=O)[O-])cc21)C(=O)Nc1ccccc1C = 0

Hi team, can someone confirm the assay call for CCCCOP(=O)(OCCCC)/C(C#N)=C/c1ccc(C)o1 ?
0

Hi team, can someone confirm the assay call for Cc1cc(C)c2cc(N)c(Cl)nc2n1 ?
0

Hi team, can someone confirm the assay call for Cc1c2ccccc2c(=O)n2c(-c3ccccn3)cccc12 ?
0

---

// reported GI50 per item
Test system: RXF 631
method: NCI tumour cell line growth inhibition, 48 h
The source made the active and inactive calls. No stated cut-off is given here; in the data, active = GI50 up to about 1.1 µM and inactive = higher.

Clc1ccc(Nc2nc3ccccc3nc2-c2cccs2)cc1Cl = 27.8 µM (inactive)
C=CCC1C(=O)CC2(C)C(CC=C)C(=O)CC12C (centres undefined) = > 100 µM (inactive)
CCOc1ccc(Nc2nc(C)c(C(=O)/C=C/c3ccc(Cl)cc3Cl)s2)cc1 = 21.8 µM (inactive)

Alright, here's another compound for you.
GI50 for O=C(O)CN(c1ccc(F)cc1)S(=O)(=O)c1ccccc1 ?
> 100 µM (inactive)

---

Tested on: BT-549
method: NCI tumour cell line growth inhibition, 48 h
Calls of active or inactive are those of the source. Rule as the data show it: active = GI50 up to about 1.1 µM and inactive = higher.
readout-type: GI50

# example entries with known answers
C/C(=N\NC(=S)NC(C)(C)C)c1ccccn1 = 3.1 µM (inactive)
Oc1c(/N=N/c2ccccc2)c2ccccc2c2ccc3ccccc3c12 = 73.8 µM (inactive)
O=[N+]([O-])c1cc2ccc(N(CCO)CCO)nc2nc1N(CCO)CCO = > 100 µM (inactive)
CC(CN(C)C)C(C#N)(c1ccccc1)c1ccccc1 (stereo not given) = > 100 µM (inactive)

Alright, here's another compound for you.
GI50 for Cc1ccc(-c2nc(C)c(C(=O)Nc3ccc(Cl)cc3)s2)cc1 ?
13.9 µM (inactive)

---

// reported GI50 per item
System: CCRF-CEM
method: NCI tumour cell line growth inhibition, 48 h
Active and inactive are the calls of the source. No stated cut-off is given here; in the data, active = GI50 up to about 1.1 µM and inactive = higher.

GI50 for C[C@]12CCC3[C@@H](CC[C@@H]4c5nonc5CC[C@]34C)C1C/C(=N/O)C2=O (some centres undefined) ?
56.5 µM (inactive)

GI50 for CCOC(=O)Nc1ccc(S(=O)(=O)Nn2cnnc2)cc1 ?
23.9 µM (inactive)

GI50 for C/C(=N\NC(=S)NC(C)(C)C)c1ccccn1 ?
< 0.01 µM (active)

---

Tested on: U-251
method: NCI tumour cell line growth inhibition, 48 h
Activity calls are given as the source filed them. No stated cut-off is given here; in the data, active = GI50 up to about 1.1 µM and inactive = higher.
readout-type: GI50

# example entries with known answers
COc1ccc2ccnc(Cc3ccc(OCc4ccccc4)c(OC)c3)c2c1 = 20.9 µM (inactive)
NC(=S)Nc1ccc2c(c1)oc1ccccc12 = > 100 µM (inactive)

So what GI50 did COc1cc(S(=O)(=O)Nc2nc(-c3ccc(N4C(=O)/C(=C/c5ccccc5)N=C4c4ccccc4)cc3)cs2)ccc1Cl get with U-251?
36 µM (inactive)

So what GI50 did CN1CN(c2ccccc2)C2(CCN(C(=O)OC(C)(C)C)CC2)C1=O get with U-251?
> 100 µM (inactive)

---

// reported GI50 per item
Test system: COLO 205
method: NCI tumour cell line growth inhibition, 48 h
Activity calls are given as the source filed them. Rule as the data show it: active = GI50 up to about 1.1 µM and inactive = higher.

So what GI50 did NC1C/C(=N\O)c2c(I)sc(I)c21 (stereo not drawn) get with COLO 205?
19.6 µM (inactive)

---

System: HL-60
method: NCI tumour cell line growth inhibition, 48 h
Calls of active or inactive are those of the source. Cut-off read from the data, not from the text of the source: active = GI50 up to about 1.1 µM and inactive = higher.
Your answer must be one of the following: y for active, n for inactive

Observe how each entry below is paired with its result.
CCN(CC)c1c(C(=O)/C=C/c2ccc(F)cc2)c(-c2ccccc2)nn(C)c1=O = n
Cc1c2ccccc2c(=O)n2c(-c3ccccn3)cccc12 = n
Cc1ccc(-c2nc(C)c(C(=O)Nc3ccc(Cl)cc3)s2)cc1 = n
CCOC(=O)CC(C)C(C#N)(OP1(=O)OC(c2ccccc2)C(C)N1C)c1ccccc1 (stereo not drawn) = n
Nc1ccn(CCCC(c2ccccc2)P(=O)(O)O)c(=O)n1 (stereo not drawn) = n
NC(=O)[N+](=CC(=S)Nc1ccccc1Cl)C(N)=O = n
C/C(=C\c1csc(C)n1)[C@@H]1C[C@@H]2O[C@@H]2CCC[C@H](C)[C@H](O)[C@@H](C)C(=O)C(C)(C)[C@@H](O)CC(=O)O1 [EPOTHILONE A] = y
CCN(CC)C(=O)Cc1c(C(=O)N(CC)CC)c(=O)nc2sccn12 = n

Hi team, can someone confirm the assay call for Nc1cccc(CCN2CCN(CCCc3ccccc3)CC2)c1 ?
n

Hi team, can someone confirm the assay call for CCC/C(Cl)=N\OC(=O)Nc1ccc(F)cc1 ?
n

Hi team, can someone confirm the assay call for C=C1CCC2[C@@H](CCC3[C@]2(C)CCC[C@]3(C)C(=O)OC)[C@@H]1CC=O (stereo partly drawn) ?
n

Hi team, can someone confirm the assay call for Cn1c(=S)[nH]c2sc3c(c2c1=O)CCSC3 ?
n

Hi team, can someone confirm the assay call for Oc1ccc(C[C@@H]2CN[C@H](Cc3ccc(O)c(Br)c3)CN2)cc1 ?
n

---

Tested on: UACC-257
method: NCI tumour cell line growth inhibition, 48 h
Active and inactive are the calls of the source. No stated cut-off is given here; in the data, active = GI50 up to about 1.1 µM and inactive = higher.
Your answer must be one of the following: yes (1) (active), no (0) (inactive)

CCOC(=O)/C(=C\c1ccc(N(C)C)cc1)S(=O)(=O)C(F)(F)C(F)(F)C(F)(F)C(F)(F)F = no (0)

Hi team, can someone confirm the assay call for Cc1ccc(-c2nc(C)c(C(=O)Nc3ccc(Cl)cc3)s2)cc1 ?
no (0)

Hi team, can someone confirm the assay call for CC(=O)O[C@H]1CC[C@H]2[C@@H]3CCc4cc(O)c(I)cc4[C@H]3CC[C@]12C ?
no (0)

---

Test system: 786-0
method: NCI tumour cell line growth inhibition, 48 h
The source made the active and inactive calls. No stated cut-off is given here; in the data, active = GI50 up to about 1.1 µM and inactive = higher.
readout-type: GI50

Fc1cccc(F)c1C(Nc1nncs1)Nc1nncs1 = > 100 µM (inactive)
Cc1cc2oc(=N)c(C#N)c(C)c2cc1C = 96.4 µM (inactive)
CC1=C(C)CC(C#N)(C#N)C(C#N)(C#N)C1 = > 4.94 µM (inactive)
CC(=O)O[C@H]1CCn2c3c(c(C)c21)C(=O)C(N1CC1)=C(C)C3=O = > 10 µM (inactive)

Alright, here's another compound for you.
GI50 for CC(C)COC(=O)OC(=O)c1ccc(N(C)Cc2cnc3nc(N)nc(N)c3n2)cc1 ?
5.37 µM (inactive)
